// data source = the supplement of paper PMC6555819

# Tested on: PPARg homodimer (NR concentration 180 nM)
# assay.info: PBM binding z-score (relative to random genomic background probes); higher = stronger binding; sequences stand for … in GC…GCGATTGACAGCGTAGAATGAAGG
# key: entry, value: PBM binding z-score

Field: example entries. Status: answers known.
{"primary.sequence": "CCTACTGGGCCAAAGGTCATTTATTCCAATGCTC", "PBM binding z-score": 5.03}
{"primary.sequence": "TCTTGTAGATCAACAGGAGGTTCAGAAAGATCGA", "PBM binding z-score": -0.725}
{"primary.sequence": "CCGAGTGGGGCAGAAAGGTTACCATACCATCCGG", "PBM binding z-score": 0.799}
{"primary.sequence": "CCTGCTAGGTCAACGGTCAGCTAAAGCAGCTCGC", "PBM binding z-score": 2.2}

**Query** What PBM binding z-score value was documented for this sequence, AGTACGAGGGCACGCTGAGTTGATAGCAGAGTAG ?
**Result** 0.0101

**Query** Which PBM binding z-score reading was recorded for the sequence GCTAGCAGGCCATTTGGGACACTCAATGACGGGC ?
**Result** -1.04
